ASSAY: Half life in human liver microsomes
Assay type: ADME, microsome
OBSERVED PROPERTY: half-life (h)
Give the value in h but do not write h after it.

Form field half-life, entry NCCCCN(C[C@H]1Cc2ccccc2CN1)[C@H]1CCCc2cccnc21 : 1

----------
ASSAY: Permeability of the compound at pH 7.4 at 100 uM after 4 hrs by PAMPA
OBSERVED PROPERTY: Papp at 4 h, 100 µM (×10⁻⁶ cm/s)

Some molecules with recorded Papp at 4 h, 100 µM:
- CC(C)(CCN(C[C@H]1Cc2ccccc2CN1)[C@H]1CCCc2cccnc21)CNC1CCOCC1: 5.7
- c1ccc(CN(CCCCN(C[C@H]2Cc3ccccc3CN2)[C@H]2CCCc3cccnc32)Cc2ccccn2)nc1: 29.4
- CC1(C)CCC(NCCCCN(C[C@H]2Cc3ccccc3CN2)[C@H]2CCCc3cccnc32)CC1: 0.3

[A] CC(C)(CCN(C[C@H]1Cc2ccccc2CN1)[C@H]1CCCc2cccnc21)CNC1CCC(F)(F)CC1
[B] NCc1ccccc1CN(C[C@H]1Cc2ccccc2CN1)[C@H]1CCCc2cccnc21
[C] CC(C)(CN)CCN(C[C@H]1Cc2ccccc2CN1)[C@H]1CCCc2cccnc21
IN: Returns the items ordered by Papp at 4 h, 100 µM, from maximum to minimum. Enter labels, ranked according to the request.
OUT: C, B, A

----------
TARGET UNDER TEST: UniProt:P10635
Sequence (P10635 whole entry): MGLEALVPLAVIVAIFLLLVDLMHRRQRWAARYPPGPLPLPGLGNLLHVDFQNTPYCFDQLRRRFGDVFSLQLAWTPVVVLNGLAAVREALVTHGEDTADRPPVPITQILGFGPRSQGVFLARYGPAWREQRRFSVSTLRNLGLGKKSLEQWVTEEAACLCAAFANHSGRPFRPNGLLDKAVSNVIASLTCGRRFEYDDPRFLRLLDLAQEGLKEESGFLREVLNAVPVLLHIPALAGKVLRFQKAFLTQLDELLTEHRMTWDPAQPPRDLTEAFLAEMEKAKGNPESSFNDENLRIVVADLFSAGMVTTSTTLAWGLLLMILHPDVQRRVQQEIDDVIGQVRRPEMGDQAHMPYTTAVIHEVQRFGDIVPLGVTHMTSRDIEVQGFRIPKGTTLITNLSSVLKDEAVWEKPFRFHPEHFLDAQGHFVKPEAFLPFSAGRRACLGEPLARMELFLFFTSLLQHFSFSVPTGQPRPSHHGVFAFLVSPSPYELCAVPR
ASSAY: Inhibition of recombinant human CYP2D6 expressed in microsomes of insect cells using AMMC as substrate preincubated for 30 mins followed by NADP addition after 45 mins by fluorescence analysis
OBSERVED PROPERTY: IC50 (nM)

Some compounds with recorded IC50:
* CC(C)(CCN(C[C@H]1Cc2ccccc2CN1)[C@H]1CCCc2cccnc21)CNC1CCOCC1 | 6210
* c1ccc(CN(CCCCN(C[C@H]2Cc3ccccc3CN2)[C@H]2CCCc3cccnc32)Cc2ccccc2)cc1 | 494

[P] O=S1(=O)CCC(CNCCCCN(C[C@H]2Cc3ccccc3CN2)[C@H]2CCCc3cccnc32)CC1
[Q] CC1(C)CCC(NCc2ccc(CN(C[C@H]3Cc4ccccc4CN3)[C@H]3CCCc4cccnc43)cc2)CC1
IN: Param pair: P , Q . Output: the one whose IC50 is numerically greater. Respond using the label that marks the chosen record.
OUT: P

----------
ASSAY: Metabolic stability in mouse liver microsomes assessed as parent compound remaining at 0.5 uM after 10 mins in presence of NADPH by LC-MS/MS analysis
OBSERVED PROPERTY: remaining at 10 min, 0.5 µM (%)

Some molecules with recorded remaining at 10 min, 0.5 µM:
- c1ccc2c(c1)CN[C@@H](CN(Cc1ccc(CNCc3ccncc3)cc1)[C@H]1CCCc3cccnc31)C2: 4.39
- c1ccc2c(c1)CN[C@@H](CN(CCCCNCC1CCOCC1)[C@H]1CCCc3cccnc31)C2: 48.5
- C(=C\CN(C[C@H]1Cc2ccccc2CN1)[C@H]1CCCc2cccnc21)/CNCC1CCOCC1: 32.3
- CC(C)(CN)CCN(C[C@H]1Cc2ccccc2CN1)[C@H]1CCCc2cccnc21: 51.2
- CC(C)(CCN(C[C@H]1Cc2ccccc2CN1)[C@H]1CCCc2cccnc21)CNCC1CCOCC1: 60.3
- O=S1(=O)CCC(CNCCCCN(C[C@H]2Cc3ccccc3CN2)[C@H]2CCCc3cccnc32)CC1: 39.3
- c1ccc2c(c1)CN[C@@H](CN(CCCCNCC1CCNCC1)[C@H]1CCCc3cccnc31)C2: 37.9

[1] c1ccc(CNCc2ccc(CN(C[C@H]3Cc4ccccc4CN3)[C@H]3CCCc4cccnc43)cc2)nc1
[2] C(=C\CN(C[C@H]1Cc2ccccc2CN1)[C@H]1CCCc2cccnc21)/CNCc1ccccn1
IN: Kindly identify the item with the lower remaining at 10 min, 0.5 µM figure among these two: 1 and 2 Respond using the label that marks the chosen record.
OUT: 2
